Readings of melting point for the listed compounds

Answered examples (4):
- compound: "Cc1ccc(-n2nnc(-c3ccc(S(=O)(=O)N[C@@H](C(=O)O)C(C)C)s3)n2)cc1 [Compound 96]"
  recorded-metric: "melting point"
  test-value: "178 to 179 °C"
- compound: "CSc1ccc(-c2nnn(-c3ccc(S(=O)(=O)N[C@@H](C(=O)O)C(C)C)cc3)n2)cc1 [Compound 120]"
  recorded-metric: "melting point"
  test-value: "194 to 196 °C"
- compound: "C[C@@H](NS(=O)(=O)c1ccc(-n2nnc(-c3ccc(F)cc3)n2)cc1)C(=O)O [Compound 114]"
  recorded-metric: "melting point"
  test-value: "194 to 195 °C"
- compound: "CCOc1ccc(-c2nnn(-c3ccc(S(=O)(=O)N[C@@H](C(=O)O)C(C)C)cc3)n2)cc1 [Compound 118]"
  recorded-metric: "melting point"
  test-value: "187 to 189 °C"

Ask | Provide melting point value for the following compound: CC(C)[C@@H](NS(=O)(=O)c1ccc(-c2nnn(-c3ccc(F)cc3)n2)s1)C(=O)O [Compound 97]
Reply | 184 to 186 °C

Ask | State its melting point for this compound: CCc1ccc(-c2nnn(-c3ccc(S(=O)(=O)N[C@H](C(=O)O)C(C)C)cc3)n2)cc1 [Compound 112]
Reply | 179 to 181 °C

Ask | Tell me its melting point given CC(C)[C@@H](NS(=O)(=O)c1ccc(-c2ncc(-c3ccccc3)o2)s1)C(=O)O [Compound 98] as the entry.
Reply | 220 to 223 °C

Ask | Hello, please tell me recorded melting point for this one: CC(C)[C@@H](NS(=O)(=O)c1ccc(-n2nnc(-c3ccc(F)cc3)n2)cc1)C(=O)O [Compound 106]
Reply | 204 to 205 °C

Ask | Identify melting point associated with the compound CCc1ccc(-c2nnn(-c3ccc(S(=O)(=O)N[C@H](CC(C)C)C(=O)O)cc3)n2)cc1 [Compound 113]
Reply | 153 to 154 °C

Ask | Please give the documented melting point of O=C(O)[C@@H](Cc1ccccc1)NS(=O)(=O)c1ccc(-n2nnc(-c3ccc(F)cc3)n2)cc1 [Compound 105]
Reply | 190 to 192 °C

Ask | Report melting point for CC(C)[C@@H](NS(=O)(=O)c1ccc(-n2nnc(-c3ccc(C(F)(F)F)cc3)n2)cc1)C(=O)O [Compound 104]
Reply | 198 to 200 °C

Ask | Report measured melting point; entry is CCc1ccc(-c2nnn(-c3ccc(S(=O)(=O)N[C@@H](Cc4ccccc4)C(=O)O)cc3)n2)cc1 [Compound 110]
Reply | 188 to 190 °C

Ask | Identify the reported melting point for the following entry. CCc1ccc(-c2nnn(-c3ccc(S(=O)(=O)N[C@H](C)C(=O)O)cc3)n2)cc1 [Compound 117]
Reply | 155 to 157 °C

Ask | Name the recorded melting point of the compound listed here: CCc1ccc(-c2nnn(-c3ccc(S(=O)(=O)N[C@@H](C(=O)O)C(C)C)cc3)n2)cc1 [Compound 107]
Reply | 186 to 187 °C

Ask | For the compound Cc1ccc(C#Cc2ccc(S(=O)(=O)N[C@H](Cc3ccccc3)C(=O)O)s2)s1 [Compound 87] , give its measured melting point value.
Reply | 158 to 160 °C

----------
- assayed-target: MMP-9 (Homo sapiens)
- Construct: endogenous protein secreted after TPA treatment and purified from conditioned medium
- Sequence (P14780 107-707 limits assumed): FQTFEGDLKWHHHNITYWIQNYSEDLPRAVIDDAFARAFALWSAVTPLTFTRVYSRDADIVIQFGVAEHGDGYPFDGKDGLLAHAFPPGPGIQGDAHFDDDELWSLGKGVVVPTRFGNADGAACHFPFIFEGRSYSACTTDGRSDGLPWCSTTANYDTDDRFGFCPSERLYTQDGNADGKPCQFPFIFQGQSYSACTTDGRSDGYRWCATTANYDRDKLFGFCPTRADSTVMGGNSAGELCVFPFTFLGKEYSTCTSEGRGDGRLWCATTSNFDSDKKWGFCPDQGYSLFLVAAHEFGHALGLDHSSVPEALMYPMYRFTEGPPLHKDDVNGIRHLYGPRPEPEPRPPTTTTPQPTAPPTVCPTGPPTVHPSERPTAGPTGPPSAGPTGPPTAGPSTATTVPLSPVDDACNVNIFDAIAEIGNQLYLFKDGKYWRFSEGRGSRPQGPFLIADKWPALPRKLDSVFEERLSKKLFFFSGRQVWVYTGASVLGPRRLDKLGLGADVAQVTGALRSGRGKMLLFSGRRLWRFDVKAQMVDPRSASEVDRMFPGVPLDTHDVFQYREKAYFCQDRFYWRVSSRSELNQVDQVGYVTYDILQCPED
- test: Assay for inhibitory activity against MMP-9
recorded-metric: IC50 (µM)

# count of solved cases: 5
- smiles-repr: "O=C(O)[C@@H](Cc1ccccc1)NS(=O)(=O)c1ccc(-n2nnc(-c3ccccc3)n2)cc1"
  IC50 / µM: 4.61
- smiles-repr: "CC(C)[C@@H](NS(=O)(=O)c1ccc(-n2nnc(-c3ccc(F)cc3)n2)cc1)C(=O)O"
  IC50 / µM: 0.104
- smiles-repr: "CCc1ccc(-c2nnn(-c3ccc(S(=O)(=O)N[C@H](C)C(=O)O)cc3)n2)cc1"
  IC50 / µM: 0.031
- smiles-repr: "Cc1ccc(-n2nnc(-c3ccc(S(=O)(=O)N[C@@H](C(=O)O)C(C)C)s3)n2)cc1"
  IC50 / µM: 0.0362
- smiles-repr: "CSc1ccc(-c2nnn(-c3ccc(S(=O)(=O)N[C@@H](C(=O)O)C(C)C)cc3)n2)cc1"
  IC50 / µM: 0.00582

A. CCCCc1ccc(-c2nnn(-c3ccc(S(=O)(=O)N[C@@H](C(=O)O)C(C)C)cc3)n2)cc1
B. CCc1ccc(-c2nnn(-c3ccc(S(=O)(=O)N[C@@H](Cc4ccccc4)C(=O)O)cc3)n2)cc1
C. CC(C)[C@@H](NS(=O)(=O)c1ccc(-n2nnc(-c3ccc(N(C)C)cc3)n2)cc1)C(=O)O
D. Cc1ccc(-n2nnc(-c3ccc(S(=O)(=O)N[C@H](Cc4ccccc4)C(=O)O)s3)n2)cc1
Ask | Sort the compounds on IC50; start with the lowest figure. Answer format: list of labels, ordered as asked.
Reply | D, C, B, A

A. O=C(O)[C@@H](Cc1c[nH]c2ccccc12)NS(=O)(=O)c1ccc(-n2nnc(-c3ccc(F)cc3)n2)cc1
B. CCc1ccc(-c2nnn(-c3ccc(S(=O)(=O)N[C@H](Cc4ccccc4)C(=O)O)cc3)n2)cc1
C. C[C@@H](NS(=O)(=O)c1ccc(-n2nnc(-c3ccc(F)cc3)n2)cc1)C(=O)O
Ask | I would appreciate it if you could sort these 3 compounds by IC50, starting from the smallest number. // format: requested-order list of labels
Reply | B, A, C

a. CCc1ccc(-c2nnn(-c3ccc(S(=O)(=O)N[C@H](C(=O)O)C(C)C)cc3)n2)cc1
b. Cc1ccc(-c2ccc(-c3ccc(S(=O)(=O)N[C@@H](C(=O)O)C(C)C)cc3)s2)cc1
Ask | Which has the higher IC50, a or b ? Selection: enter the item's label.
Reply | a
(a: 0.126 µM, b: 0.0278 µM)

----------
- assayed-target: MMP-2 (Homo sapiens)
- Sequence (P08253 110-660, species assumed): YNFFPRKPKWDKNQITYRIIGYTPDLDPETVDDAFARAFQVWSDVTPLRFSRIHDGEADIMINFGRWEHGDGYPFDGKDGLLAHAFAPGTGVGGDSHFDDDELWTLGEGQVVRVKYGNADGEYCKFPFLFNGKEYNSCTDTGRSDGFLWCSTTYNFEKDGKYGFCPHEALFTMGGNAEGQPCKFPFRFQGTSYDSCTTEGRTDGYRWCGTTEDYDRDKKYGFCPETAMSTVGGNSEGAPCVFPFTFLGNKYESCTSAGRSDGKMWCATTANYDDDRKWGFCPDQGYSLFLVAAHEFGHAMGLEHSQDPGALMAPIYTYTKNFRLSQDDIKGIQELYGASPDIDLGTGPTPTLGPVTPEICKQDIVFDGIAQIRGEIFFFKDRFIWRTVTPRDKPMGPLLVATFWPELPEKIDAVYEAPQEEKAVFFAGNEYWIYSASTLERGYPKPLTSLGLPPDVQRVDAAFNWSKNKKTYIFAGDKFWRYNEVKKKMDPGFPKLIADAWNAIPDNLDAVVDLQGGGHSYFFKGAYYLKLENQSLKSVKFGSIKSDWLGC
pIC50: −log10 of the molar value.
recorded-metric: pIC50

- smiles-repr: "Cc1ccc(-n2nnc(-c3ccc(S(=O)(=O)N[C@H](Cc4ccccc4)C(=O)O)s3)n2)cc1"
  assayed-target: "MMP-2 (Homo sapiens)"
  recorded-metric: "pIC50"
  test-value: 7.97
- smiles-repr: "CCc1ccc(-c2nnn(-c3ccc(S(=O)(=O)N[C@H](Cc4ccccc4)C(=O)O)cc3)n2)cc1"
  assayed-target: "MMP-2 (Homo sapiens)"
  recorded-metric: "pIC50"
  test-value: 8.00
- smiles-repr: "CC(C)[C@@H](NS(=O)(=O)c1ccc(-n2nnc(-c3ccc(C(F)(F)F)cc3)n2)cc1)C(=O)O"
  assayed-target: "MMP-2 (Homo sapiens)"
  recorded-metric: "pIC50"
  test-value: 8.69
- smiles-repr: "O=C(O)[C@@H](Cc1ccccc1)NS(=O)(=O)c1ccc(-n2nnc(-c3ccccc3)n2)cc1"
  assayed-target: "MMP-2 (Homo sapiens)"
  recorded-metric: "pIC50"
  test-value: 6.74
- smiles-repr: "CCc1ccc(-c2nnn(-c3ccc(S(=O)(=O)N[C@H](C)C(=O)O)cc3)n2)cc1"
  assayed-target: "MMP-2 (Homo sapiens)"
  recorded-metric: "pIC50"
  test-value: 8.58
- smiles-repr: "CCc1ccc(-c2nnn(-c3ccc(S(=O)(=O)N[C@H](CC(C)C)C(=O)O)cc3)n2)cc1"
  assayed-target: "MMP-2 (Homo sapiens)"
  recorded-metric: "pIC50"
  test-value: 8.24

P. CC(C)[C@@H](NS(=O)(=O)c1ccc(-c2nnn(-c3ccc(F)cc3)n2)s1)C(=O)O
Q. C[C@@H](NS(=O)(=O)c1ccc(-n2nnc(-c3ccc(F)cc3)n2)cc1)C(=O)O
Ask | Select one. Lower pIC50: P or Q // output: label of the selected item
Reply | Q
(Q: 7.56, P: 7.81)

----------
The entries below are paired with their reported melting point.

Ask | Fill in melting point for record CC(C)[C@@H](NS(=O)(=O)c1ccc(-n2nnc(-c3ccc(N(C)C)cc3)n2)cc1)C(=O)O
Reply | 185 to 188 °C

Ask | Output melting point of CCc1ccc(-c2nnn(-c3ccc(S(=O)(=O)N[C@H](Cc4ccccc4)C(=O)O)cc3)n2)cc1
Reply | 187 to 189 °C

Ask | Hello, please tell me recorded melting point for this one: CCCCc1ccc(-c2nnn(-c3ccc(S(=O)(=O)N[C@@H](C(=O)O)C(C)C)cc3)n2)cc1
Reply | 191 to 193 °C

Ask | Please report melting point for the following molecule: O=C(O)[C@@H](Cc1c[nH]c2ccccc12)NS(=O)(=O)c1ccc(-n2nnc(-c3ccc(F)cc3)n2)cc1
Reply | 113 to 115 °C

Ask | Annotate the molecule O=C(O)[C@@H](Cc1ccccc1)NS(=O)(=O)c1ccc(-n2nnc(-c3ccccc3)n2)cc1 with its measured melting point.
Reply | 191 to 192 °C

Ask | Check the records and state melting point for Cc1ccc(-n2nnc(-c3ccc(S(=O)(=O)N[C@H](Cc4ccccc4)C(=O)O)s3)n2)cc1
Reply | 166 to 169 °C
